System: HEK-293T
Test: Multiplex assay against HEK293T
Type: toxicity, cell-based
Conditions: human, 48 h, 10 µM, compound concentration 10 uM, replicate 2
MEASURED_QUANTITY: Population Mitotic Cells (%)
Please state the number and follow it with the unit.

INSERT INTO assay_data (molecule, result) VALUES
  ('Cl.O=C(O)c1cc(-c2ccc(C3CCNCC3)cc2)c2ccc(-c3ccc(C(F)(F)F)cc3)cc2c1', '59%'),
  ('CCCSc1nc(N[C@@H]2C[C@H]2c2ccc(F)c(F)c2)c2nnn([C@@H]3C[C@H](OCCO)[C@@H](O)[C@H]3O)c2n1', '7%'),
  ('O=C(c1cc2c(cc1F)OC(c1ccc(F)cc1)(c1ccc(Cl)cc1Cl)O2)N1CCOCC1 (centres undefined)', '41%');

The recorded Population Mitotic Cells (%) for CCc1nn(CCCN2CCN(c3cccc(Cl)c3)CC2)c(=O)n1CCOc1ccccc1.Cl [NEFAZODONE HYDROCHLORIDE] is 4%

###

Give measured Population Normal (%) for each item. Keep answers brief.
Test system: HEK-293T
Experiment: Multiplex assay against HEK293T
Type: toxicity, cell-based
Settings: human, 48 h, 10 µM, compound concentration 10 uM, replicate 2
Answers are plain numbers, in %.

INSERT INTO assay_data (compound, measured_quantity, number) VALUES
  ('CC1=C(C(=O)Nc2cc3cn[nH]c3cc2F)C(c2ccc(C(F)(F)F)cc2)CC(=O)N1 (stereo not drawn)', 'Population Normal (%)', 97),
  ('CNC(=O)Nc1ccc(-c2nc(N3CC4CCC(C3)O4)c3cnn(C4CCC5(CC4)OCCO5)c3n2)cc1', 'Population Normal (%)', 91),
  ('Cc1cccc(CN2CCN(C(c3ccccc3)c3ccc(Cl)cc3)CC2)c1.Cl.Cl (stereo not drawn)', 'Population Normal (%)', 95),
  ('CC(C)NC(=O)N1CC[C@H](NC2=Nc3cc(F)ccc3N(CC(F)F)c3ccc(Cl)cc32)C1', 'Population Normal (%)', 97);

// for each compound below, give its Population Normal (%)
1. CCc1ccc(OCc2ccccc2C(=O)Nc2ccc3nc(C)cc(N)c3c2)cc1.Cl
2. CC(C)OC(=O)N1CCC(Oc2ncnc3c2cnn3-c2ccc(S(C)(=O)=O)cc2F)CC1
3. C#Cc1cccc(Nc2ncnc3cc(OCCOC)c(OCCOC)cc23)c1 [ERLOTINIB]
4. CC(C)(C)NC[C@H](O)COc1nsnc1N1CCOCC1 [TIMOLOL]

59
96
94
97

###

I'd be grateful if you could share measured Population Membrane Permeable-Phenotype (%) for these entries.
Tested on: HEK-293T
Test: Multiplex assay against HEK293T
Type: toxicity, cell-based
Settings: human, 48 h, 10 µM, compound concentration 10 uM, replicate 2
Numbers only, in %.

INSERT INTO measurements (compound, number) VALUES
  ('Cl.O=C(O)c1cc(-c2ccc(C3CCNCC3)cc2)c2ccc(-c3ccc(C(F)(F)F)cc3)cc2c1', 20),
  ('CC(C)(C)NC[C@H](O)COc1nsnc1N1CCOCC1 [TIMOLOL]', 2),
  ('CC(C)Oc1ccccc1C(=O)Nc1ccccc1C(=O)Nc1cccc(S(=O)(=O)C(F)(F)F)c1', 15);

Moving on to another compound below.
Reported Population Membrane Permeable-Phenotype (%) (HEK-293T) for entry CN1CCN(Cc2ccc(Nc3ncc(Cl)c(Nc4ccccc4S(=O)(=O)N(C)C)n3)cc2)CC1 [DUBERMATINIB] is 2

###

Test system: HEK-293T
Test: Multiplex assay against HEK293T
Assay type: toxicity, cell-based
Details: human, 24 h, 1 µM, compound concentration 1 uM, replicate 2
MEASURED_QUANTITY: Population Pyknosed Nuclei (%)
Numbers only, in %.

INSERT INTO results (compound, unit_string, number) VALUES
  ('CC(C)NC(=O)N1CC[C@H](NC2=Nc3cc(F)ccc3N(CC(F)F)c3ccc(Cl)cc32)C1', '%', 25);

I have 5 compounds here; please give me Population Pyknosed Nuclei (%) for each one.
1. Cc1ccc2c(c1)c1c(n2CCc2ccc(C)nc2)CCN(C)C1 [LATREPIRDINE]
2. CC(C)CC(=O)Nc1[nH]nc2c1CN(C(=O)C1CCN(C)CC1)C2(C)C
3. CC(C)OC(=O)N1CCC(Oc2ncnc3c2cnn3-c2ccc(S(C)(=O)=O)cc2F)CC1
4. O=c1[nH]c2ccccc2n1C1CCN(Cc2ccc(-c3[nH]c4cc5ncnc5cc4nc3-c3ccccc3)cc2)CC1
5. C=CC(=O)Nc1cccc(Oc2nc(Nc3ccc(N4CCN(C)CC4)cc3OC)ncc2Cl)c1

1. 39
2. 3
3. 29
4. 3
5. 14

###

System: Fibroblast
Assay: Multiplex assay against human fibroblast
Type: toxicity, cell-based
Settings: 12 h, 10 µM, compound concentration 10 uM, replicate 2
MEASURED_QUANTITY: Population Normal (%)
One number for each entry, in %.

Worked cases, Population Normal (%) given:
INSERT INTO results (smiles_entry, measured_quantity, number) VALUES
  ('C=CC(=O)Nc1cccc(Oc2nc(Nc3ccc(N4CCN(C)CC4)cc3OC)ncc2Cl)c1', 'Population Normal (%)', 64),
  ('CNC(=O)Nc1ccc2c(c1)[C@@]1(CC2)OC(=O)N(CC(=O)N(Cc2ccc(F)cc2)[C@@H](C)C(F)(F)F)C1=O', 'Population Normal (%)', 70),
  ('Cc1nc(N2CC[C@H](O)C2)ncc1-c1cc(C(F)(F)F)cc2[nH]ncc12', 'Population Normal (%)', 77);

Hi team, please reply with Population Normal (%) for each item in this list.
1. CN1CCN(Cc2ccc(Nc3ncc(Cl)c(Nc4ccccc4S(=O)(=O)N(C)C)n3)cc2)CC1
2. CC(C)CC(=O)Nc1[nH]nc2c1CN(C(=O)C1CCN(C)CC1)C2(C)C

[90, 66]

###

Tested on: U2OS
Assay: Multiplex assay against U2OS
Format: toxicity, cell-based
Settings: human, 12 h, 1 µM, compound concentration 1 uM, replicate 1
MEASURED_QUANTITY: Population Normal (%)
Returns: string containing the numeric result and its unit.

INSERT INTO measurements (compound, result) VALUES
  ('CCc1ccc(OCc2ccccc2C(=O)Nc2ccc3nc(C)cc(N)c3c2)cc1.Cl', '89%'),
  ('CC(C)Oc1ccccc1C(=O)Nc1ccccc1C(=O)Nc1cccc(S(=O)(=O)C(F)(F)F)c1', '88%'),
  ('Cc1c[nH]c2nccc(Oc3c(F)cc(Nc4cc(Cl)nc(N)n4)cc3F)c12', '93%'),
  ('CC(C)CC(=O)Nc1[nH]nc2c1CN(C(=O)C1CCN(C)CC1)C2(C)C', '98%'),
  ('CCOC(=O)Nc1cc(-c2ccc(C)c(NS(C)(=O)=O)c2)nn2c(C)nnc12', '97%'),
  ('Cc1nc(N2CC[C@H](O)C2)ncc1-c1cc(C(F)(F)F)cc2[nH]ncc12', '96%'),
  ('COc1cc2ncn(-c3cc(OCc4ccccc4C(F)(F)F)c(C(N)=O)s3)c2cc1OC [GW843682X]', '92%'),
  ('COC(=O)C1=C(C)NC(C)=C(C(=O)OCCCN2CCC(c3ccccc3)(c3ccccc3)CC2)[C@H]1c1cccc([N+](=O)[O-])c1', '88%');

Batch: Population Normal (%) for all items listed.
1. CNC(=O)Nc1ccc(-c2nc(N3CC4CCC(C3)O4)c3cnn(C4CCC5(CC4)OCCO5)c3n2)cc1
2. C[C@]12CC[C@@H]3c4ccc(O)cc4CC[C@H]3[C@@H]1CC[C@@H]2O
3. CN1CCN(Cc2ccc(Nc3ncc(Cl)c(Nc4ccccc4S(=O)(=O)N(C)C)n3)cc2)CC1
4. CNC(=O)Nc1ccc2c(c1)[C@@]1(CC2)OC(=O)N(CC(=O)N(Cc2ccc(F)cc2)[C@@H](C)C(F)(F)F)C1=O
5. C=CC(=O)Nc1cccc(Sc2nc(Nc3ccc(N4CCN(C)CC4)cc3)ncc2Cl)c1

1. 86%
2. 92%
3. 88%
4. 95%
5. 89%

###

System: HEK-293T
Assay: Multiplex assay against HEK293T;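 on Population Tubulin-Different-Phenotype (%): share of the cells with healthy nuclei that show this phenotype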
Assay type: toxicity, cell-based
Details: human, 12 h, 1 µM, compound concentration 1 uM, replicate 2
MEASURED_QUANTITY: Population Tubulin-Different-Phenotype (%)
Answers are plain numbers, in %.

Known Population Tubulin-Different-Phenotype (%) results, listed for orientation:
INSERT INTO assay_data (molecule, unit_string, number) VALUES
  ('CCc1nn(CCCN2CCN(c3cccc(Cl)c3)CC2)c(=O)n1CCOc1ccccc1.Cl [NEFAZODONE HYDROCHLORIDE]', '%', 49),
  ('COC(=O)C1=C(C)NC(C)=C(C(=O)OCCCN2CCC(c3ccccc3)(c3ccccc3)CC2)[C@H]1c1cccc([N+](=O)[O-])c1', '%', 98);

GET /value?item= CC(C)c1noc(N2CCC(COc3ccc(-c4ccc(S(C)(=O)=O)cc4)nc3)CC2)n1 &field=Population Tubulin-Different-Phenotype (%) returns 16

Data origin: ChEMBL document CHEMBL4689842
